Assay: Single ascending dose
Type: in vivo, human
Details: human, plasma, oral, 80 mg, t max, h median (range), SAD 80 mg
outcome.measure: Tmax (h)
Numbers only, in h.

Which Tmax value is on record for C=C(C)[C@@H]1CC[C@]2(NCCN3CCS(=O)(=O)CC3)CC[C@]3(C)[C@H](CC[C@@H]4[C@@]5(C)CC=C(C6=CC[C@@](COc7ncccc7C#N)(C(=O)O)CC6)C(C)(C)[C@@H]5CC[C@]43C)[C@@H]12 [GSK'937] ?
7.98

* * *

Experiment: Multiple ascending dose
Format: in vivo, human
Details: human, plasma, oral, 50 mg, C max, ng/mL GM (%CVb), 50 mg QD, Day 14
outcome.measure: Cmax (ng/mL)
Numbers only, in ng/mL.

Which Cmax value is on record for C=C(C)[C@@H]1CC[C@]2(NCCN3CCS(=O)(=O)CC3)CC[C@]3(C)[C@H](CC[C@@H]4[C@@]5(C)CC=C(C6=CC[C@@](COc7ncccc7C#N)(C(=O)O)CC6)C(C)(C)[C@@H]5CC[C@]43C)[C@@H]12 ?
1150

* * *

Assay: Relative bioavailability and food effect
Type: in vivo, human
Conditions: human, plasma, oral, 100 mg, Median t max, 100 mg PiB fed
outcome.measure: Tmax (h)
Give bare numbers, in h.

Which Tmax value is on record for C=C(C)[C@@H]1CC[C@]2(NCCN3CCS(=O)(=O)CC3)CC[C@]3(C)[C@H](CC[C@@H]4[C@@]5(C)CC=C(C6=CC[C@@](COc7ncccc7C#N)(C(=O)O)CC6)C(C)(C)[C@@H]5CC[C@]43C)[C@@H]12 ?
9

* * *

Assay: Multiple ascending dose
Assay type: in vivo, human
Conditions: human, plasma, oral, 25 mg, C max, ng/mL GM (%CVb), 25 mg QD, Day 1
outcome.measure: Cmax (ng/mL)
One number for each entry, in ng/mL.

Which Cmax value is on record for C=C(C)[C@@H]1CC[C@]2(NCCN3CCS(=O)(=O)CC3)CC[C@]3(C)[C@H](CC[C@@H]4[C@@]5(C)CC=C(C6=CC[C@@](COc7ncccc7C#N)(C(=O)O)CC6)C(C)(C)[C@@H]5CC[C@]43C)[C@@H]12 ?
132

* * *

Experiment: Single ascending dose
Type: in vivo, human
Conditions: human, plasma, oral, 160 mg, t 1/2 GM (%CVb), SAD 160 mg
outcome.measure: half-life (h)
One number for each entry, in h.

Which half-life value is on record for C=C(C)[C@@H]1CC[C@]2(NCCN3CCS(=O)(=O)CC3)CC[C@]3(C)[C@H](CC[C@@H]4[C@@]5(C)CC=C(C6=CC[C@@](COc7ncccc7C#N)(C(=O)O)CC6)C(C)(C)[C@@H]5CC[C@]43C)[C@@H]12 [GSK'937] ?
91.8

* * *

Experiment: Multiple ascending dose
Format: in vivo, human
Details: human, plasma, oral, 500 mg, t max, h median (range), 500 mg QW, Day 15
outcome.measure: Tmax
Don't forget the unit after the value.

Which Tmax value is on record for C=C(C)[C@@H]1CC[C@]2(NCCN3CCS(=O)(=O)CC3)CC[C@]3(C)[C@H](CC[C@@H]4[C@@]5(C)CC=C(C6=CC[C@@](COc7ncccc7C#N)(C(=O)O)CC6)C(C)(C)[C@@H]5CC[C@]43C)[C@@H]12 ?
10 h
